- ASSAYED_TARGET: KRAS G12V (Homo sapiens, UniProt P01116, G12V)
- Sequence (P01116 1-188 isoform P01116-2 G12V): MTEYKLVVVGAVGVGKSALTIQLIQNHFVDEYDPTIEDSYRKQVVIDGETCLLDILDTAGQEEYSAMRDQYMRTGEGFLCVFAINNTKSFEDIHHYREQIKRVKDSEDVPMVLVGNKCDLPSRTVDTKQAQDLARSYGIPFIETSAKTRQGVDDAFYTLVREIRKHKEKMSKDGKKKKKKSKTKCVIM
- TEST_PROTOCOL: GDP-GTP exchange assay (bodipy-GDP/GppNHp, SOS1), KRAS G12V
- Assay type: biochemical
- ASSAY_CONDITIONS: KRAS_G12V exchange assay IC50; value for the most potent isomer quoted
VALUE_KIND: G12V_exchange

# COMPOUND, MEASURED
records = [
    ("Cc1nc2c(F)c(-c3cccc(Cl)c3Cl)c(CCC#N)cc2c2c1cc([C@@H](C)N1CCCN(c3cccnc3)C1=O)n2[C@H]1[C@H]2CN[C@@H]1C2", "†"),
    ("Cc1nc2c(F)c(-c3cccc(Cl)c3Cl)c(CCC#N)cc2c2c1cc([C@@H](C)N1CCCN(c3ccnc(N)c3)C1=O)n2[C@H]1[C@H]2CN[C@@H]1C2", "†"),
    ("CC(O)c1nc2c(F)c(-c3cccc(Cl)c3Cl)c(CCC#N)cc2c2c1cc([C@@H](C)N1CCCN(c3ccncc3)C1=O)n2[C@H]1[C@H]2CN[C@@H]1C2 (single isomer, unassigned) [Example 14]", "†"),
    ("Cc1c(Cl)cc(O)cc1-c1c(CCC#N)cc2c(nc(C)c3cc([C@@H](C)N4CCCN(c5ccncc5)C4=O)n([C@H]4[C@H]5CN[C@@H]4C5)c32)c1F", "†"),
    ("CC(=O)NCc1cccc(N2CCCN([C@H](C)c3cc4c(C)nc5c(F)c(-c6cccc(Cl)c6Cl)c(CCC#N)cc5c4n3[C@H]3[C@H]4CN[C@@H]3C4)C2=O)c1", "†"),
    ("COc1cc(N2CCCN([C@H](C)c3cc4c(C)nc5c(F)c(-c6cccc(Cl)c6Cl)c(CCC#N)cc5c4n3[C@H]3[C@H]4CN[C@@H]3C4)C2=O)ccn1", "†"),
    ("Cc1nc2c(F)c(-c3cccc(Cl)c3Cl)c(CCC#N)cc2c2c1cc([C@@H](C)N1CCCN(c3ccccn3)C1=O)n2[C@H]1[C@H]2CN[C@@H]1C2 [Example 19]", "†"),
    ("Cc1nc2c(F)c(-c3cccc(Cl)c3Cl)c(CCC#N)cc2c2c1cc([C@@H](C)N1CCCN(c3cncnc3)C1=O)n2[C@H]1[C@H]2CN[C@@H]1C2 (single isomer, unassigned)", "†"),
    ("Cc1nc2c(F)c(-c3cccc(Cl)c3Cl)c(CCC#N)cc2c2c1cc([C@@H](C)N1CCCN(c3ccc(F)cn3)C1=O)n2[C@H]1[C@H]2CN[C@@H]1C2 (single isomer, unassigned)", "†"),
    ("Cc1nc2c(F)c(-c3cccc(Cl)c3Cl)c(CCC#N)cc2c2c1cc([C@@H](C)N1CCCN(c3ccncc3)C1=O)n2[C@H]1[C@H]2CN[C@@H]1C2 (single isomer, unassigned)", "†"),
    ("Cc1nc2c(F)c(-c3cccc(Cl)c3Cl)c(CCC#N)cc2c2c1cc([C@@H](C)N1CCCN(c3cncnc3)C1=O)n2[C@H]1[C@H]2CN[C@@H]1C2", "†"),
    ("Cc1nc2c(F)c(-c3cccc(Cl)c3Cl)c(CCC#N)cc2c2c1cc([C@@H](C)N1CCCN(c3ccnc(F)c3)C1=O)n2[C@H]1[C@H]2CN[C@@H]1C2", "†"),
    ("Cc1nc2c(F)c(-c3cccc(Cl)c3Cl)c(CCC#N)cc2c2c1cc([C@@H](C)N1CCCN(c3ccc(F)cc3)C1=O)n2[C@H]1[C@H]2CN[C@@H]1C2 (single isomer, unassigned) [Example 3]", "†"),
    ("Cc1nc2c(F)c(-c3cccc(Cl)c3Cl)c(CCC#N)cc2c2c1cc([C@@H](C)N1CCCN(c3ccc(F)cc3)C1=O)n2[C@H]1[C@H]2CN[C@@H]1C2 [Example 18]", "†"),
    ("CC(O)c1nc2c(F)c(-c3cccc(Cl)c3Cl)c(CCC#N)cc2c2c1cc([C@@H](C)N1CCCN(c3ccncc3)C1=O)n2[C@H]1[C@H]2CN[C@@H]1C2 (stereo partly shown) [Example 39]", "†"),
    ("Cc1nc2c(F)c(-c3cccc(Cl)c3Cl)c(CCC#N)cc2c2c1cc([C@@H](C)N1CCCN(c3ccnc4sccc34)C1=O)n2[C@H]1[C@H]2CN[C@@H]1C2 (single isomer, unassigned)", "†"),
    ("Cc1nc2c(F)c(-c3cccc(Cl)c3Cl)c(CCC#N)cc2c2c1cc([C@@H](C)N1CCCN(c3cccc(C4(O)COC4)c3)C1=O)n2[C@H]1[C@H]2CN[C@@H]1C2", "†"),
    ("Cc1nc2c(F)c(-c3cccc(Cl)c3Cl)c(CCC#N)cc2c2c1cc([C@@H](C)N1CCCN(c3ccccn3)C1=O)n2[C@H]1[C@H]2CN[C@@H]1C2 (single isomer, unassigned) [Example 4]", "†"),
    ("Cc1nc2c(F)c(-c3cccc(Cl)c3Cl)c(CCC#N)cc2c2c1cc([C@@H](C)N1CCCN(c3ccncc3F)C1=O)n2[C@H]1[C@H]2CN[C@@H]1C2 [Example 21]", "†"),
]
